# System: SEM cells
# assay.name: cell viability relative to DMSO control; higher = less cytotoxic
# test.conditions: HPLM + 10% dialyzed FBS; 48 h; 0.00234 µM
assay.endpoint: cell viability (%)
Numbers only, in %.

// below: answered molecules
- molecule: "Cc1cnc(Nc2ccc(OCCN3CCCC3)cc2)nc1Nc1cccc([S+](=O)([O-])NC(C)(C)C)c1"
  tested.target: "SEM cells"
  assay.endpoint: "cell viability"
  unit.abbrev: "%"
  reported.result: 93.2
- molecule: "CC(C)c1ccc2oc3nc(N)c(C(=O)O)cc3c(=O)c2c1"
  tested.target: "SEM cells"
  assay.endpoint: "cell viability"
  unit.abbrev: "%"
  reported.result: 109
- molecule: "CN(C)c1nc(N(C)C)nc(N(C)C)n1"
  tested.target: "SEM cells"
  assay.endpoint: "cell viability"
  unit.abbrev: "%"
  reported.result: 97.3
- molecule: "C[Se]CCC(N)C(=O)O (stereo not given)"
  tested.target: "SEM cells"
  assay.endpoint: "cell viability"
  unit.abbrev: "%"
  reported.result: 87.2

Would you kindly look at the next entry?
In: What does the data say about its cell viability? Entry: O=C(Oc1ccc([N+](=O)[O-])cc1)N1CCN(Cc2cccc(Oc3ccccc3)c2)CC1
Out: 100
